- System name: Mu-type opioid receptor (Homo sapiens) + Delta-type opioid receptor (Homo sapiens) (UniProt P35372+P41143)
- Sequence (P35372 whole entry, looked up): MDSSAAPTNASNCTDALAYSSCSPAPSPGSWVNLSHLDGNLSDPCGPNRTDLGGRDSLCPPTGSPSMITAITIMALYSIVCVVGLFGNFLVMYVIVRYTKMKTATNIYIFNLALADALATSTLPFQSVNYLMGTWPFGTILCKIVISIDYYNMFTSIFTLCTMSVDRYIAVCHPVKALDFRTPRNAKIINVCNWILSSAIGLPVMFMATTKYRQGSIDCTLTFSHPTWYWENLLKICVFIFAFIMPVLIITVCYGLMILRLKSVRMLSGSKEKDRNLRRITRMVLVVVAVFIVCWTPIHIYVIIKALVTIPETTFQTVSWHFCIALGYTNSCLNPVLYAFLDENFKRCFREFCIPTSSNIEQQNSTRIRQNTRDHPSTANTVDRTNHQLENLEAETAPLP
- Sequence (P41143 whole entry, looked up): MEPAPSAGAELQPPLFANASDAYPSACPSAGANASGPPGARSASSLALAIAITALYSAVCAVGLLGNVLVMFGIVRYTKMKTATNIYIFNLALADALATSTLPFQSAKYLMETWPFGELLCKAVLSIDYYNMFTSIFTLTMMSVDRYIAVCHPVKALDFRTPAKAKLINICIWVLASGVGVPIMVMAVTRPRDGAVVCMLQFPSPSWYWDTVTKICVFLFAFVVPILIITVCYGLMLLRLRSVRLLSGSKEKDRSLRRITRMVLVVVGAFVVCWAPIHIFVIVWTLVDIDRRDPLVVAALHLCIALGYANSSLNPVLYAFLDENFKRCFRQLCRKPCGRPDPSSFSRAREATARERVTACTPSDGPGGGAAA
- Protocol summary: OPRM1-OPRD1 heterodimer agonist potency – cell-based, luminescence, dose response (AID 588407);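 note: potency of agonists raising the heterodimer signal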
- Condition summary: cells, MOR-DOR heterodimerization
The source made the active and inactive calls. The rule behind the calls is not given here.
Mark one answer only. Choices: True = active, False = inactive

Study these solved cases before continuing.
compound=Cc1cc2[nH]c3c4ccccc4nc(C)c3c2cc1C label_value=True
compound="COc1ccc2[nH]c3c(=O)n(/N=C/[C@H]4C(C)C=C(C)CC4C)c(=O)[nH]c3c2c1 (stereo not given in full)" label_value=False

Data request: GET /call?item= CCOC(=O)C1(Cc2ccccc2)CCN(Cc2cccn2-c2cccnc2)CC1 returns the recorded outcome of this test.
Data returned: False

Data request: GET /call?item= O=C(CSc1ccc(Cl)cc1)Nc1ccc(-c2nc3ccccc3[nH]2)cc1 returns the recorded outcome of this test.
Data returned: False

Data request: GET /call?item= COc1ccc(C2CC(c3ccc(OC)cc3)n3nc(NC(=O)c4cccs4)nc3N2)cc1 (stereo not given) returns the recorded outcome of this test.
Data returned: False

Data request: GET /call?item= Oc1ccc(Oc2ccc3c(C(F)(F)F)cc(C(F)(F)F)nc3n2)cc1 returns the recorded outcome of this test.
Data returned: False

Data request: GET /call?item= CCC(=O)OC(Cc1ccccc1)(c1ccccc1)[C@H](C)CN(C)C (stereo not given in full) returns the recorded outcome of this test.
Data returned: True

* * *

- System name: Mu-type opioid receptor (Homo sapiens) + Delta-type opioid receptor (Homo sapiens) (UniProt P35372+P41143)
- Protocol summary: OPRM1-OPRD1 heterodimer agonist potency – cell-based, luminescence, dose response (AID 588407);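 note: potency of agonists raising the heterodimer signal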
- Condition summary: cells, MOR-DOR heterodimerization
Active and inactive are the calls of the source. How the calls were made is not given here.
Mark one answer only. Choices: active, inactive

Study these solved cases before continuing.
compound=COc1ccc(/C=C/C(=O)NC(=S)NCCc2ccc(OC)c(OC)c2)cc1 label_value=active
compound=CC1=C/C(=N\OS(=O)(=O)c2ccccc2)C(C)=CC1=O label_value=inactive
compound="CC(=O)Nc1ccc(CN2CCCC(C(=O)c3cccc(C(F)(F)F)c3)C2)cc1 (stereo not given)" label_value=active
compound="COc1cccc(CC2(CO)CCCN(Cc3ccccc3-c3ccco3)C2)c1 (stereo not given)" label_value=active

Now turn to the next compound.
Data request: GET /call?item= COC(=O)c1cc2c(n1S(=O)(=O)c1ccc(C)cc1)C(=O)C(=O)c1[nH]cc(C(=O)OCc3ccccc3)c1-2 returns the recorded outcome of this test.
Data returned: active

* * *

- System name: Mu-type opioid receptor (Homo sapiens) + Delta-type opioid receptor (Homo sapiens) (UniProt P35372+P41143)
- Protocol summary: OPRM1-OPRD1 heterodimer agonist potency – cell-based, luminescence, dose response (AID 588407);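 note: potency of agonists raising the heterodimer signal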
- Condition summary: cells, MOR-DOR heterodimerization
The source made the active and inactive calls. The rule behind the calls is not given here.
Mark one answer only. Choices: active, inactive

Data request: GET /call?item= COc1ccc2c(Cl)c(-c3nnc(SCC(=O)c4ccccc4)n3C)sc2c1 returns the recorded outcome of this test.
Data returned: active

Data request: GET /call?item= CN(C)C(CNC(C(=O)Nc1ccc([N+](=O)[O-])cc1Br)c1ccccc1)c1ccccc1 (stereo unspecified) returns the recorded outcome of this test.
Data returned: active

Data request: GET /call?item= Cc1c(CCOC(=O)c2ccccc2)sc[n+]1CC(=O)c1ccc(Br)cc1 returns the recorded outcome of this test.
Data returned: inactive

Data request: GET /call?item= Cc1ccccc1NC(=S)NCC(c1cccnc1)N(C)C (stereo unspecified) returns the recorded outcome of this test.
Data returned: active

Data request: GET /call?item= CCCc1nc2c(=O)n(C)c(=O)nc-2n(C)n1 returns the recorded outcome of this test.
Data returned: inactive

Data request: GET /call?item= CCOC(=O)C1(CC2CCCCO2)CCN(Cc2nc(-c3cccs3)oc2C)CC1 (stereo unspecified) returns the recorded outcome of this test.
Data returned: inactive

Data request: GET /call?item= CCN1CCN(Cc2ccc(NC(=O)c3ccc(C)c(NC(=O)c4c[nH]c5cc(C(F)(F)F)ccc5c4=O)c3)cc2C(F)(F)F)CC1 returns the recorded outcome of this test.
Data returned: active

Data request: GET /call?item= CCOC(=O)C1(CCc2ccccc2)CCN(Cc2ccco2)CC1 returns the recorded outcome of this test.
Data returned: inactive
